- targetUnderTest: Progesterone receptor (Homo sapiens, UniProt P06401); further: assay procedure not described here
- Sequence (P06401 whole entry): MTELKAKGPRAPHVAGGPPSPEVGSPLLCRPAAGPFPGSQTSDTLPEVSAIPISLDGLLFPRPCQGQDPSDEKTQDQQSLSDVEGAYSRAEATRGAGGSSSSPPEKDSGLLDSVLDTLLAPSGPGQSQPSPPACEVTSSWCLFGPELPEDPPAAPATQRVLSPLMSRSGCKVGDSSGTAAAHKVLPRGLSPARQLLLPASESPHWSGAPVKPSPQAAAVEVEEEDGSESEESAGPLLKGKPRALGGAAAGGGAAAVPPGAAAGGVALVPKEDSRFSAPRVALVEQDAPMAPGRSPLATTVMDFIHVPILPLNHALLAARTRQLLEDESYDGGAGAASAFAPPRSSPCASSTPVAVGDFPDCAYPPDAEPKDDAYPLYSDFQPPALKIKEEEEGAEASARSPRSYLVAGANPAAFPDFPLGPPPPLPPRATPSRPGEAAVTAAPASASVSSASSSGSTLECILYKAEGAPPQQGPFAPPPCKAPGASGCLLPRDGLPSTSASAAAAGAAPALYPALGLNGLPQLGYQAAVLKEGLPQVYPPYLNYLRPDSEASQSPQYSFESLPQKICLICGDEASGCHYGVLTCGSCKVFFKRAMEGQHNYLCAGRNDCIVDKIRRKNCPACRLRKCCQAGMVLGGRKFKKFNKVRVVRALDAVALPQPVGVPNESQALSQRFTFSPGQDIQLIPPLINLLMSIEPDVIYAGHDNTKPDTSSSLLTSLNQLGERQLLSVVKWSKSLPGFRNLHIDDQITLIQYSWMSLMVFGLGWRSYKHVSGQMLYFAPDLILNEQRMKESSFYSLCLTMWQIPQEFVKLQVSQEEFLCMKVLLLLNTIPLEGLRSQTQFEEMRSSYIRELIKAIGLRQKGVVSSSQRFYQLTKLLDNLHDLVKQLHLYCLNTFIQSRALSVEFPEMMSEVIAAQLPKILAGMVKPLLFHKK
- Format: functional

{"molecule": "COc1cc(NC(C)CCCN)c2ncccc2c1 (stereo not given) [PRIMAQUINE]", "AC50": "20 µM"}
{"molecule": "CN(C)CCc1c[nH]c2ccc(C[C@H]3COC(=O)N3)cc12 [ZOLMITRIPTAN]", "AC50": "> 30 µM"}
{"molecule": "CC(C)(C)C(=O)Oc1ccc(S(=O)(=O)Nc2ccccc2C(=O)NCC(=O)O)cc1", "AC50": "> 30 µM"}
{"molecule": "CN1C(=O)CCS(=O)(=O)C1c1ccc(Cl)cc1 (stereo not given) [CHLORMEZANONE]", "AC50": "> 10 µM"}
{"molecule": "CCc1c(Cl)c(O)c(Cl)c(O)c1C(=O)O[C@H]1[C@H](O)[C@H](OC)[C@H](OC/C2=C\\C=C\\C[C@H](O)/C(C)=C/[C@H](CC)[C@@H](O[C@@H]3OC(C)(C)[C@@H](OC(=O)C(C)C)[C@H](O)[C@@H]3O)/C(C)=C/C(C)=C/C[C@@H]([C@@H](C)O)OC2=O)O[C@@H]1C [FIDAXOMICIN]", "AC50": "> 30 µM"}
{"molecule": "N[C@@H]1[C@H]2CN(c3nc4c(cc3F)c(=O)c(C(=O)O)cn4-c3ccc(F)cc3F)C[C@@H]12 [TROVAFLOXACIN]", "AC50": "> 30 µM"}
{"molecule": "Brc1c(NC2=NCCN2)ccc2nccnc12 [BRIMONIDINE]", "AC50": "> 30 µM"}
{"molecule": "CO/N=C(\\C(=O)N[C@@H]1C(=O)N2C(C(=O)O)=C(CSc3nnnn3C)CS[C@H]12)c1csc(N)n1 [CEFMENOXIME]", "AC50": "> 30 µM"}
{"molecule": "Clc1ccc(C(c2ccccc2Cl)C(Cl)Cl)cc1 (stereo not given) [MITOTANE]", "AC50": "0.45 µM"}
{"molecule": "C=CCN1C[C@H](C(=O)N(CCCN(C)C)C(=O)NCC)C[C@@H]2c3cccc4[nH]cc(c34)C[C@H]21 [CABERGOLINE]", "AC50": "> 10 µM"}
{"molecule": "CCCCCCOc1ccccc1C(N)=O [EXALAMIDE]", "AC50": "> 30 µM"}
{"molecule": "O=C(O[C@H]1C[C@H]2CC[C@@H](C1)[N+]21CCCC1)C(O)(c1ccccc1)c1ccccc1 [TROSPIUM]", "AC50": "> 30 µM"}
{"molecule": "O=C1Nc2ccc(Cl)cc2[C@@](C#CC2CC2)(C(F)(F)F)O1 [EFAVIRENZ]", "AC50": "> 30 µM"}
{"molecule": "COc1cc2nc(N(C)CCCNC(=O)C3CCCO3)nc(N)c2cc1OC (stereo not given) [ALFUZOSIN]", "AC50": "> 30 µM"}
{"molecule": "CC1(C)NC(=O)N(c2ccc([N+](=O)[O-])c(C(F)(F)F)c2)C1=O [NILUTAMIDE]", "AC50": "> 30 µM"}
{"molecule": "CCCCCNC(=N)N/N=C/c1c[nH]c2ccc(OC)cc12 [TEGASEROD]", "AC50": "21 µM"}
{"molecule": "C#C[C@]1(O)CC[C@H]2[C@@H]3CCc4cc(OC5CCCC5)ccc4[C@H]3CC[C@@]21C [QUINESTROL]", "AC50": "0.221 µM"}
{"molecule": "c1cnc(N2CCN(Cc3ccc4c(c3)OCO4)CC2)nc1 [PIRIBEDIL]", "AC50": "> 30 µM"}
{"molecule": "CC(C(=O)O)c1ccc(N2Cc3ccccc3C2=O)cc1 (stereo not given) [INDOPROFEN]", "AC50": "16.8 µM"}
{"molecule": "COc1ccc(CCN(C)CCCC(C#N)(c2cc(OC)c(OC)c(OC)c2)C(C)C)cc1OC (stereo not given) [GALLOPAMIL]", "AC50": "> 30 µM"}
{"molecule": "O=C(O)CCCCCCCC(=O)O [AZELAIC ACID]", "AC50": "> 10 µM"}
{"molecule": "Nc1nc(Cl)nc2c1ncn2[C@H]1C[C@H](O)[C@@H](CO)O1 [CLADRIBINE]", "AC50": "> 30 µM"}
{"molecule": "NS(=O)(=O)Cc1noc2ccccc12 [ZONISAMIDE]", "AC50": "> 10 µM"}
{"molecule": "CC(=O)NCCCS(=O)(=O)O [ACAMPROSATE]", "AC50": "> 30 µM"}
{"molecule": "NCC(=O)CCC(=O)O [AMINOLEVULINIC ACID]", "AC50": "> 30 µM"}
{"molecule": "CC1(C)O[C@@H]2C[C@H]3[C@@H]4CCC5=CC(=O)C=C[C@]5(C)[C@H]4[C@@H](O)C[C@]3(C)[C@]2(C(=O)CO)O1 [DESONIDE]", "AC50": "0.065 µM"}
{"molecule": "COc1ccc(-c2ccc3cc(C(=O)O)ccc3c2)cc1C12CC3CC(CC(C3)C1)C2", "AC50": "> 30 µM"}
{"molecule": "Nc1nc(NC2CC2)c2ncn([C@H]3C=C[C@@H](CO)C3)c2n1 [ABACAVIR]", "AC50": "> 30 µM"}
{"molecule": "O=P1(NCCCl)OCCCN1CCCl (stereo not given) [IFOSFAMIDE]", "AC50": "> 30 µM"}
{"molecule": "Cc1cc(O)c(C(=O)N[C@@H](C(=O)N[C@@H]2C(=O)N3C(C(=O)O)=C(CSc4nnnn4C)CS[C@H]23)c2ccc(O)cc2)cn1 [CEFPIRAMIDE]", "AC50": "> 30 µM"}
{"molecule": "O=C(O)[C@H](CC(=O)N1C[C@H]2CCCC[C@H]2C1)Cc1ccccc1 [MITIGLINIDE]", "AC50": "> 10 µM"}
{"molecule": "CCC1(CC)C(=O)NCC(C)C1=O (stereo not given) [METHYPRYLON]", "AC50": "> 30 µM"}
{"molecule": "C#C[C@]1(O)CC[C@H]2[C@@H]3[C@H](C)CC4=C(CCC(=O)C4)[C@H]3CC[C@@]21C [TIBOLONE]", "AC50": "0.4 µM"}
{"molecule": "COc1ccc(CC(C)(C)NC[C@H](O)c2cc(O)cc3c2OCC(=O)N3)cc1 [OLODATEROL]", "AC50": "> 30 µM"}
{"molecule": "C[C@](N)(Cc1ccc(O)c(O)c1)C(=O)O [METHYLDOPA]", "AC50": "> 30 µM"}

====

- targetUnderTest: Thromboxane A2 receptor (Homo sapiens, UniProt P21731); further: assay procedure not described here
- Sequence (P21731 whole entry): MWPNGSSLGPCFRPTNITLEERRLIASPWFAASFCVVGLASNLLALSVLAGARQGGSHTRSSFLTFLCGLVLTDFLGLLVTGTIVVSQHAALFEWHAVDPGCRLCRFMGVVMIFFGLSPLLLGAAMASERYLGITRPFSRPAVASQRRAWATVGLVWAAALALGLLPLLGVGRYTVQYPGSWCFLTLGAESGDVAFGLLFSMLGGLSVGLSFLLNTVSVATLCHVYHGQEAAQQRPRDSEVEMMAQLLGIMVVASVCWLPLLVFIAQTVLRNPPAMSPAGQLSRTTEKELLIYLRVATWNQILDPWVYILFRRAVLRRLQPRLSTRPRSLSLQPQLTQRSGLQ
quantity: AC50

{"molecule": "CN(C)/N=N/c1[nH]cnc1C(N)=O [DACARBAZINE]", "resultValue": "> 10 µM"}
{"molecule": "COc1ccc(CCN(C)CCCC(C#N)(c2cc(OC)c(OC)c(OC)c2)C(C)C)cc1OC (stereo not given) [GALLOPAMIL]", "resultValue": "> 30 µM"}
{"molecule": "CNC(=O)c1ccccc1Sc1ccc2c(/C=C/c3ccccn3)n[nH]c2c1 [AXITINIB]", "resultValue": "8.66 µM"}
{"molecule": "CC(Oc1c(Cl)cccc1Cl)C1=NCCN1 (stereo not given) [LOFEXIDINE]", "resultValue": "> 30 µM"}
{"molecule": "CCCCC[C@H](O)/C=C/[C@H]1[C@H](O)CC(=O)[C@@H]1CCCCCCC(=O)O [ALPROSTADIL]", "resultValue": "> 10 µM"}
{"molecule": "Cc1nnc2n1-c1ccc(Cl)cc1C(c1ccccc1Cl)=NC2 [TRIAZOLAM]", "resultValue": "> 30 µM"}
{"molecule": "Cc1ccc(-c2cc(C(F)(F)F)nn2-c2ccc(S(N)(=O)=O)cc2)cc1 [CELECOXIB]", "resultValue": "> 10 µM"}
{"molecule": "CNS(=O)(=O)Cc1ccc2[nH]cc(CCN(C)C)c2c1", "resultValue": "> 30 µM"}
{"molecule": "COc1cccc(C2(O)CCCCC2CN(C)C)c1 (stereo not given) [TRAMADOL]", "resultValue": "> 30 µM"}
{"molecule": "Nc1nc(NC2CC2)c2ncn([C@H]3C=C[C@@H](CO)C3)c2n1 [ABACAVIR]", "resultValue": "> 30 µM"}

Origin of the recorded values: ChEMBL document CHEMBL5291721
